Give remaining at 1 h for every item shown.
assay: Metabolic stability test in liver S9; assay type: in vitro ADME; conditions: pH 7.4; unchanged form after 60 minutes at 37°C, human liver S9 2 mg protein/mL, LC/MS; read-out: Remaining rate in human liver S9 (%/60min)
Note: unit % is implicit; provide only the numeric part.

Documented remaining at 1 h of CC(OC(=O)c1ccc(OC(=O)CCCc2ccc(NC(=O)c3ccccc3-c3ccc(C(F)(F)F)cc3)c(C(=O)N(C)C)c2)cc1)c1ccccc1 (centres unmarked) : 0

Documented remaining at 1 h of CN(C)C(=O)c1cc(CCCC(=O)Oc2ccc(C(=O)OCc3cccs3)cc2)ccc1NC(=O)c1ccccc1-c1ccc(C(F)(F)F)cc1 : 0

Documented remaining at 1 h of COC(=O)c1ccc(OC(=O)CN(C)Cc2ccc(NC(=O)c3ccccc3-c3ccc(C(F)(F)F)cc3)c(C(=O)N(C)C)c2)cc1 : 0

Documented remaining at 1 h of CC(=O)c1ccc(OC(=O)CCCc2ccc(NC(=O)c3ccccc3-c3ccc(C(F)(F)F)cc3)c(C(=O)N(C)C)c2)cc1 : 0

Documented remaining at 1 h of CN(C)C(=O)c1cc(CCC(=O)Oc2ccccc2)ccc1NC(=O)c1ccccc1-c1ccc(C(F)(F)F)cc1 : 0

---

assay: Metabolic stability test in liver S9; assay type: in vitro ADME; settings: pH 7.4; unchanged form after 60 minutes at 37°C, human liver S9 2 mg protein/mL, LC/MS; read-out: Remaining rate in human liver S9 (%/60min)
Give remaining at 1 h for every item shown.
Report the figure along with its unit, number first.

Documented remaining at 1 h of CC(=O)NCCOC(=O)c1ccc(OC(=O)CCCc2ccc(NC(=O)c3ccccc3-c3ccc(C(F)(F)F)cc3)c(C(=O)N(C)C)c2)cc1 : 0%

Documented remaining at 1 h of CN(C)C(=O)c1cc(CCCC(=O)Oc2ccc(C(=O)OCCN3CCCC3=O)cc2)ccc1NC(=O)c1ccccc1-c1ccc(C(F)(F)F)cc1 : 0%

Documented remaining at 1 h of CN(C)C(=O)COC(=O)c1ccc(OC(=O)CCCc2ccc(NC(=O)c3ccccc3-c3ccc(C(F)(F)F)cc3)c(C(=O)N(C)C)c2)cc1 : 0%

---

test: Stability test in buffer (pH 7.4); assay type: physicochemical; conditions: phosphate buffer/acetonitrile 7:3; 10 minutes at 37°C, 100 mM potassium phosphate buffer (pH 7.4) and acetonitrile 7:3 (v/v), LC/MS; read-out: Buf. remaining rate (%/10min)
observation.type: remaining at 10 min (%)
Note: unit % is implicit; provide only the numeric part.

Documented remaining at 10 min of COC(=O)c1ccc(OC(=O)CCCc2ccc(NC(=O)c3ccc(C)nc3-c3ccc(C(F)(F)F)cc3)c(C(=O)N(C)C)c2)c(C)c1 : 101

Documented remaining at 10 min of CN(C)C(=O)c1cc(CCCC(=O)Oc2ccc(C(=O)OCCCOCc3ccccc3)cc2)ccc1NC(=O)c1ccccc1-c1ccc(C(F)(F)F)cc1 : 102

Documented remaining at 10 min of COC(=O)c1cc(C)c(OC(=O)CCCc2ccc(NC(=O)c3ccc(C)nc3-c3ccc(C(F)(F)F)cc3)c(C(=O)N(C)C)c2)c(Cl)c1 : 100

Documented remaining at 10 min of CC(C)OCCOC(=O)c1ccc(OC(=O)CCCc2ccc(NC(=O)c3ccccc3-c3ccc(C(F)(F)F)cc3)c(C(=O)N(C)C)c2)cc1 : 99

Documented remaining at 10 min of CCOc1cc(C(=O)OC)cc(Cl)c1OC(=O)CCCc1ccc(NC(=O)c2ccc(C)nc2-c2ccc(C(F)(F)F)cc2)c(C(=O)N(C)C)c1 : 100

Documented remaining at 10 min of CCOC(=O)c1cc(Cl)c(OC(=O)CCCc2ccc(NC(=O)c3ccc(C)nc3-c3ccc(C(F)(F)F)cc3)c(C(=O)N(C)C)c2)c(OC)c1 : 99

---

test: Metabolic stability test in liver S9; assay type: in vitro ADME; conditions: pH 7.4; unchanged form after 60 minutes at 37°C, human liver S9 2 mg protein/mL, LC/MS; read-out: Remaining rate in human liver S9 (%/60min)
Give remaining at 1 h for every item shown.
Note: unit % is implicit; provide only the numeric part.

Documented remaining at 1 h of CN(C)C(=O)c1cc(CC(=O)Oc2ccc(F)cc2)ccc1NC(=O)c1ccccc1-c1ccc(C(F)(F)F)cc1 : 0

Documented remaining at 1 h of CCOc1cc(C(=O)OC)cc(Cl)c1OC(=O)CCCc1ccc(NC(=O)c2ccc(C)nc2-c2ccc(C(F)(F)F)cc2)c(C(=O)N(C)C)c1 : 0

Documented remaining at 1 h of COC(=O)c1cc(Cl)c(OC(=O)CCCc2ccc(NC(=O)c3ccc(C)nc3-c3ccc(C(F)(F)F)cc3)c(C(=O)N(C)C)c2)c(C(C)C)c1 : 9

Documented remaining at 1 h of Cc1ccc(C(=O)Nc2ccc(CCCC(=O)Oc3ccc(C(=O)OCc4cccnc4)cc3)cc2C(=O)N(C)C)c(-c2ccc(C(F)(F)F)cc2)n1 : 0

Documented remaining at 1 h of COC(=O)c1cc(C)c(OC(=O)CCCc2ccc(NC(=O)c3ccc(C)nc3-c3ccc(C(F)(F)F)cc3)c(C(=O)N(C)C)c2)c(OC)c1 : 2

Documented remaining at 1 h of CCOC(=O)c1ccc(OC(=O)CCCc2ccc(NC(=O)c3ccccc3-c3ccc(C(F)(F)F)cc3)c(C(=O)N3CCCC3)c2)c(F)c1 : 0

Documented remaining at 1 h of COC(=O)c1ccc(OC(=O)CCCc2ccc(NC(=O)c3ccccc3-c3ccc(C(F)(F)F)cc3)c(C(=O)N(C)C)c2)c(Cl)c1 : 0

Documented remaining at 1 h of COc1cc(C(=O)OC(C)C)cc(OC)c1OC(=O)CCCc1ccc(NC(=O)c2ccc(C)nc2-c2ccc(C(F)(F)F)cc2)c(C(=O)N(C)C)c1 : 4

All values here come from patent EP1803452A1.
